- subjectOfTest: IFN-α4a (human, UniProt P05014 24-189)
- assayProcedure: cell-based or functional assay
quantity: IC50 (pM), ISRE assay
The reply should be a number in pM, with the unit left off.

binder | IC50 (pM), ISRE assay
IFWM3310 (antibody, IgG1, V domains shown) VH: EVQLVQSGAEVKKPGESLKISCKGSGYSFTSYWIGWVRQMPGKGLEWMGIIDPSDSDTRYSPSFQGQVTISADKSISTAYLQWSSLKASDTAMYYCARHPGLNWAPDFDYWGQGTLVTVSS VL: DIQMTQSPSSLSASVGDRVTITCRASQSIGKSLNWYQQKPGKAPKLLIYFASSLQSGVPSRFSGSGSGTDFTLTISSLQPEDFATYYCQQSYDFPLTFGQGTKVEIK | 169

Here is another binder to look at.
Please give the measured IC50 (pM), ISRE assay for this binder: IFWM3307 (antibody, IgG1, V domains shown) VH: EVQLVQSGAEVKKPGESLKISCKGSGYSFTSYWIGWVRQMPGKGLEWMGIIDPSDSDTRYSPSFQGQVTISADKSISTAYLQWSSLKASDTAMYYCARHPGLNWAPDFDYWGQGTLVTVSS VL: DIQMTQSPSSLSASVGDRVTITCRASQSIGDFLNWYQQKPGKAPKLLIYFASSLQSGVPSRFSGSGSGTDFTLTISSLQPEDFATYYCQQALDFPLTFGQGTKVEIK 501
